assay: protein stability index of a GFP-peptide fusion (GPS, HEK-293T) (PSI 1-6); higher = more stable; settings: treatment: MLN4924 1 uM, 8 h; c terminus: a fixed tail appended;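 further: 24-mer peptide tiles fused after GFP, lentivirally expressed, FACS-sorted into six equal bins by GFP/DsRed ratio, decoded by Illumina sequencing, PSI is the read-weighted mean bin number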
Record TRUE whenever protein stability index is at 3 or higher; record FALSE when lower.

monomer_sequence="FKRRRVRRRRMETIVFLDKEVFAS [PCMTD2]" assigned_class=FALSE
monomer_sequence="FQKSLVLISKLPYIHFFHTVLKQI [DENND6A]" assigned_class=FALSE
monomer_sequence="FDLERENACATKEQKNHTFPRLNR [PLD5]" assigned_class=TRUE

Record FLTYVPLLGLKAFLGLFFIVRFLE [FADS1] ; criterion: protein stability index no lower than 3. Met?
FALSE

====

assay: protein stability index of a GFP-peptide fusion (GPS, HEK-293T) (PSI 1-6); higher = more stable; details: treatment: MLN4924 1 uM, 8 h; c terminus: a fixed tail appended
Reported Property: protein stability index
Give a plain numeric answer without units written out.

Study these solved cases before continuing.
monomer_sequence="KVIERGERLDELQDKSESLSDNAT [VAMP4]" observed=5.33
monomer_sequence="GGAAGAGWCIFVYNLSPEADESVL [ELAVL3]" observed=2.52
monomer_sequence="VVPARLKRASAPTFDNDYSLSELL [RIPK4]" observed=2.8
monomer_sequence="VRTTRGKRKRVDVEESEASSSVSI [LMNB1]" observed=5.09
monomer_sequence="SRDGATGHVLLTDSEFSMQEPMVP [PPFIA4]" observed=4.6
monomer_sequence="AGLAELGHRLAQKLQGLENWGQDP [PBXIP1]" observed=2.85
monomer_sequence="DVTCFLLPHPGLQVATSPDFDGKL [ATL3]" observed=2.69
monomer_sequence="LHPVQKVILNYPSPWDQEERPAQR [TRAF3IP2]" observed=3.66

I have this sequence here, PSPSTLEPHPRPLLQRELMVPGTR [TNXB] , and I need its recorded protein stability index.
4.36

Then this sequence: DVQLLHSWNNNDRSLNVFVKEDDK [SPSB1]
4.97

Then this sequence: NEVLSSDILPRWAIIGWLLTTCTS [INTS3]
2.91

Then this sequence: FEEQENYFLLCDVLPEDRILREEL [ZNF277]
3.5

Then this sequence: PAPSRMQMPQGNPLLLSHTLQELL [SNX8]
3.1

Then this sequence: VLFTSDACGLSDVAHVESLQEKSQ [NR2F2]
4.04

Then this sequence: PQGLFVEALSVPLSLCVSSHLALP [CLPTM1]
2.91

Then this sequence: CIGLQNLKLLDELPIAKVMKDYLK [ASB7]
2.27

Then this sequence: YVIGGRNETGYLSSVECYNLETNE [KLHL14]
3.02

Then this sequence: SNKSLVEALGLEAEGAVPETQTLT [RHOBTB1]
5.16

====

assay: protein stability index of a GFP-peptide fusion (GPS, HEK-293T) (PSI 1-6); higher = more stable; details: treatment: MLN4924 1 uM, 8 h; c terminus: a fixed tail appended
Reported Property: protein stability index
Give a plain numeric answer without units written out.

Study these solved cases before continuing.
monomer_sequence="DKWFRKIKDHFCPFENQFHTEIQI [C8orf76]" observed=2.32
monomer_sequence="AVVNELIDYGANVNQPNNNGFTPL [ANKRD44]" observed=3.21
monomer_sequence="SLLTNWPSVPPTIKEEENSEEELA [MYBL2]" observed=5.28

I have this sequence here, ELGEEAMEKFREDEGFIKEEERPL [KCNA1] , and I need its recorded protein stability index.
5.63

Then this sequence: YQLPQMPDVVVRSFMTWLRSYIKL [MED27]
2.25

Then this sequence: TSYKVMVSNDSHTWVTVKNGSGDM [CPXM2]
2.94

Then this sequence: QLQFLIRYHRFISFALYLAGFCMF [CDS1]
2.32

Then this sequence: LGLKDKEGYTSFWNDCISSGLRGG [GOLPH3L]
2.83
